B1: HDV Ribozyme (parent)
chain: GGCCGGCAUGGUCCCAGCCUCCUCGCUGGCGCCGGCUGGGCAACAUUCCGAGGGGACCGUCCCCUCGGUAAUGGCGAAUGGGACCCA

- Variants of: B1
- protocol.description: self-cleavage, relative activity (ratio to wild type); higher = more cleavage; co-transcriptional
Overview of reported self-cleavage across a group of variants:
// keep it numeric: no unit symbol after the value

Query G5A G34C yields self-cleavage of 0.101

Query U37G G81C yields self-cleavage of 0
